- test_target: hMAO-B (Homo sapiens, UniProt P27338)
- Sequence (P27338 1-520): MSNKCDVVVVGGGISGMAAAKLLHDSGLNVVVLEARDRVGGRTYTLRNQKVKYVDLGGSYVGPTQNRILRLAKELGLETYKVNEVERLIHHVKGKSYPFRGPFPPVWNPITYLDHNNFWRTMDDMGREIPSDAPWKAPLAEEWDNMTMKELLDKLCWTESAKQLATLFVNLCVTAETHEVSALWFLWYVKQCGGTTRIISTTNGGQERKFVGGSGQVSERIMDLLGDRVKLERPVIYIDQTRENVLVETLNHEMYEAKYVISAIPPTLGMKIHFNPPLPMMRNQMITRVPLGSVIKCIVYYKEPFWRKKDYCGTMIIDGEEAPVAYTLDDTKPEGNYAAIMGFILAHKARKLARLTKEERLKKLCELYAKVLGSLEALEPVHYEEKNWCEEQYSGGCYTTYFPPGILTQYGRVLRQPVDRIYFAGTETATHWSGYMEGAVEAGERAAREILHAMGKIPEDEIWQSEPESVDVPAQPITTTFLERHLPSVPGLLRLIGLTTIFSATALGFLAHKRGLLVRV
Exercise: for every item that follows, state its recorded IC50.
Just the number in nM, nothing appended.

[Q] What IC50 value was documented for this compound, CCOC(=O)c1ccc(COc2ccc3c(=O)c(-c4ccc(O)cc4)coc3c2)cc1 [PT-34] ?
[A] 2300

[Q] Try COC(=O)c1cccc(COc2ccc3c(=O)c(-c4ccc(O)cc4)coc3c2)c1 [PT-33] next.
[A] 300
